test system: Plasmodium falciparum NF54 asexual blood stage; test: % inhibition of asexual blood stage proliferation (pLDH); higher = more inhibition; details: 20 µM; 72 h
Measured % inhibition of asexual blood stage proliferation by item
readout.kind: % inhibition of asexual blood stage proliferation (%)

>  <molecule>
CCc1cc(Cc2cnc(N)nc2N)cc2c1N(C)CCC2C (configuration not stated)

>  <experimental.system>
Plasmodium falciparum NF54 asexual blood stage

>  <test.result>
95.1

$$$$
>  <molecule>
C[C@@H](NC(=O)c1cccc(-c2c[nH]c(-c3cc4ccccc4cn3)n2)c1)c1ccc(F)cc1

>  <experimental.system>
Plasmodium falciparum NF54 asexual blood stage

>  <test.result>
72.3

$$$$
>  <molecule>
C/C(=N\NC(=O)C1CC1c1ccccc1)c1ccc(NC(=O)c2ccco2)cc1 (configuration not stated)

>  <experimental.system>
Plasmodium falciparum NF54 asexual blood stage

>  <test.result>
38.7

$$$$
>  <molecule>
N#Cc1c(F)c(Cl)c(NCc2ccccc2)c(C#N)c1F

>  <experimental.system>
Plasmodium falciparum NF54 asexual blood stage

>  <test.result>
95.3

$$$$
>  <molecule>
CC(C)(C)c1ccc(OCCn2nc(C(=O)O)c3ccccc3c2=O)cc1

>  <experimental.system>
Plasmodium falciparum NF54 asexual blood stage

>  <test.result>
19.9

$$$$
>  <molecule>
COc1cc(Cc2cc(N)nc(N)n2)cc(OC)c1OC

>  <experimental.system>
Plasmodium falciparum NF54 asexual blood stage

>  <test.result>
50.8

$$$$
>  <molecule>
C[Si]1(C)CCN(Cc2cc(-c3ccc(Cl)cc3)n(-c3ccc(Cl)cc3)n2)CC1

>  <experimental.system>
Plasmodium falciparum NF54 asexual blood stage

>  <test.result>
59.2

$$$$

* * *

tested on: Plasmodium berghei ANKA liver stage in HepG2-A16-CD81; experiment: % inhibition of liver stage parasite viability (luciferase); higher = more inhibition; conditions: 5 µM; 48 h
Field: label. Allowed values: YES (% inhibition of liver stage parasite viability < 30%) or NO (% inhibition of liver stage parasite viability >= 30%).

>  <compound>
Cc1c(F)cccc1NC(=O)Nc1ccc(Cl)c(S(=O)(=O)[C@H]2CCCNC2)c1O

>  <experimental.system>
Plasmodium berghei ANKA liver stage in HepG2-A16-CD81

>  <label>
YES

$$$$
>  <compound>
CN(C)CCNC(=O)c1cccc2cccnc12

>  <experimental.system>
Plasmodium berghei ANKA liver stage in HepG2-A16-CD81

>  <label>
YES

$$$$
>  <compound>
CCCCOC(=O)Nc1cc2nc(C3CCCCC3)[nH]c2cc1N(CC)CC

>  <experimental.system>
Plasmodium berghei ANKA liver stage in HepG2-A16-CD81

>  <label>
NO

$$$$
>  <compound>
Cc1nc2ccc(Oc3ccccc3)cc2c2c1CCN2CCc1ccccc1

>  <experimental.system>
Plasmodium berghei ANKA liver stage in HepG2-A16-CD81

>  <label>
YES

$$$$
>  <compound>
CN(C)CCCNC(=O)c1ccc(-c2cc(O)c3ncccc3c2)cc1

>  <experimental.system>
Plasmodium berghei ANKA liver stage in HepG2-A16-CD81

>  <label>
YES

$$$$
>  <compound>
O=C(O)CSc1cc(NS(=O)(=O)c2cccc3cccnc23)c2ccccc2c1O

>  <experimental.system>
Plasmodium berghei ANKA liver stage in HepG2-A16-CD81

>  <label>
NO

$$$$
>  <compound>
CCCCSc1nc(N)c2[nH]c(=O)c(=O)n(Cc3ccccc3)c2n1

>  <experimental.system>
Plasmodium berghei ANKA liver stage in HepG2-A16-CD81

>  <label>
YES

$$$$
>  <compound>
O=S(=O)(Nc1ccc(O)cc1)c1cccc2cccnc12

>  <experimental.system>
Plasmodium berghei ANKA liver stage in HepG2-A16-CD81

>  <label>
YES

$$$$
>  <compound>
CC(C)c1ccc(COc2cccc(-c3cc(S(C)=O)c(C#N)c(=O)[nH]3)c2)cc1 (stereo not given)

>  <experimental.system>
Plasmodium berghei ANKA liver stage in HepG2-A16-CD81

>  <label>
NO

$$$$
>  <compound>
Oc1cc(-c2cccc3ccccc23)[nH]n1

>  <experimental.system>
Plasmodium berghei ANKA liver stage in HepG2-A16-CD81

>  <label>
NO

$$$$
>  <compound>
N[C@H](CCC(=O)N[C@@H](Cc1c[nH]c2ccccc12)C(=O)O)C(=O)O

>  <experimental.system>
Plasmodium berghei ANKA liver stage in HepG2-A16-CD81

>  <label>
YES

$$$$
>  <compound>
C[C@@H]1O[C@@H]1P(=O)(O)O

>  <experimental.system>
Plasmodium berghei ANKA liver stage in HepG2-A16-CD81

>  <label>
YES

$$$$
>  <compound>
CCc1nc(N)nc(N)c1C#CC(C)c1cc(OC)cc(-c2ccncc2)c1 (stereo not given)

>  <experimental.system>
Plasmodium berghei ANKA liver stage in HepG2-A16-CD81

>  <label>
NO

$$$$
>  <compound>
Cc1ccc(N2CCC(CCOc3ccc(S(C)(=O)=O)cc3)CC2)nn1

>  <experimental.system>
Plasmodium berghei ANKA liver stage in HepG2-A16-CD81

>  <label>
YES

$$$$
>  <compound>
CCc1ccccc1OCCN1CCCCCC1

>  <experimental.system>
Plasmodium berghei ANKA liver stage in HepG2-A16-CD81

>  <label>
YES

$$$$
>  <compound>
Cc1cc(Nc2ccc(F)cc2)nc(SCc2nc3ccccc3[nH]2)n1

>  <experimental.system>
Plasmodium berghei ANKA liver stage in HepG2-A16-CD81

>  <label>
YES

$$$$
>  <compound>
CO[C@@]1(NC(=O)Cc2cccs2)C(=O)N2C(C(=O)O)=C(COC(N)=O)CS[C@@H]21

>  <experimental.system>
Plasmodium berghei ANKA liver stage in HepG2-A16-CD81

>  <label>
YES

$$$$
>  <compound>
O=[N+]([O-])c1ccc2c(CCc3c[nH]c4ccccc34)c[nH]c2c1

>  <experimental.system>
Plasmodium berghei ANKA liver stage in HepG2-A16-CD81

>  <label>
YES

$$$$
>  <compound>
O=S(=O)(Nc1ccccc1)c1ccc(NC(=S)Nc2ccccc2)cc1

>  <experimental.system>
Plasmodium berghei ANKA liver stage in HepG2-A16-CD81

>  <label>
YES

$$$$
>  <compound>
N#Cc1cc([N+](=O)[O-])ccc1Oc1ccccc1Cl

>  <experimental.system>
Plasmodium berghei ANKA liver stage in HepG2-A16-CD81

>  <label>
YES

$$$$
>  <compound>
CC[C@@]1(O)C(=O)OCc2c1cc1n(c2=O)Cc2cc3c(CN(C)C)c(O)ccc3nc2-1

>  <experimental.system>
Plasmodium berghei ANKA liver stage in HepG2-A16-CD81

>  <label>
NO

$$$$
>  <compound>
CC(C)Cn1c(=O)n(C)c(=O)c2c(-c3cncn3C)n(Cc3cccc4ccccc34)nc21

>  <experimental.system>
Plasmodium berghei ANKA liver stage in HepG2-A16-CD81

>  <label>
YES

$$$$
>  <compound>
Cn1cc(NC(=O)c2cc(NC(=O)c3ccc(/C=C/c4cnc5ccccc5c4)cc3)cn2C)cc1C(=O)NCCN1CCOCC1

>  <experimental.system>
Plasmodium berghei ANKA liver stage in HepG2-A16-CD81

>  <label>
NO

$$$$
>  <compound>
Nc1nc(F)nc2c1ncn2[C@H]1O[C@@H](CO)[C@H](O)[C@@H]1O

>  <experimental.system>
Plasmodium berghei ANKA liver stage in HepG2-A16-CD81

>  <label>
NO

$$$$
>  <compound>
COc1c(NC(=O)[C@H]2CC[C@@H](COc3ccc([N+](=O)[O-])cc3)CC2)c(F)cc2c(=O)c(C(=O)O)cn(C3CC3)c12

>  <experimental.system>
Plasmodium berghei ANKA liver stage in HepG2-A16-CD81

>  <label>
NO

$$$$
>  <compound>
O=c1[nH]c(=O)n(Cc2cccc(Oc3ccccc3)c2)cc1Nc1ccccc1

>  <experimental.system>
Plasmodium berghei ANKA liver stage in HepG2-A16-CD81

>  <label>
YES

$$$$
>  <compound>
CCc1cc(O)c(Oc2cccnc2N)cc1F

>  <experimental.system>
Plasmodium berghei ANKA liver stage in HepG2-A16-CD81

>  <label>
YES

$$$$
>  <compound>
CCc1oc2ccccc2c1C(=O)c1ccc(O)cc1

>  <experimental.system>
Plasmodium berghei ANKA liver stage in HepG2-A16-CD81

>  <label>
NO

$$$$
